Entry source: the supplement of paper PMC3068080

Item-by-item account of remaining TGFBR1 mRNA
Tested on: TGFBR1 mRNA
assay: remaining TGFBR1 mRNA relative to control siRNA (off-target knock-down) (fraction of control); quantification method: branched DNA; higher = less knock-down
// return just the number, without any unit appended

// known answers, use as guide
residue sequence	remaining TGFBR1 mRNA
UGCGUUUACGGUUCACACGTT	0.69
AUGCCAUUGUGCAUUGUCATT	0.85
AUGUAUAGUCACGCAGUUCTT	0.98

The value of remaining TGFBR1 mRNA measured for the sequence `AGAUCACCGCGUAGACAACTT` turned out to be 1.01

The value of remaining TGFBR1 mRNA measured for the sequence `AUGGCUAUUCCUGACCACGTT` turned out to be 0.93

The value of remaining TGFBR1 mRNA measured for the sequence `AUGCACCGAACAGCUCCAUTT` turned out to be 1.56

The value of remaining TGFBR1 mRNA measured for the sequence `UCCUUGGUCCAUUAGGAGATT` turned out to be 0.61

The value of remaining TGFBR1 mRNA measured for the sequence `AGGCAACAGGGAUGAGAUGTT` turned out to be 0.93

The value of remaining TGFBR1 mRNA measured for the sequence `UCCACGAUGAAGGGAUGCUTT` turned out to be 1.06

The value of remaining TGFBR1 mRNA measured for the sequence `UUGUAAAAACCAGGCGACCTT` turned out to be 1.48

The value of remaining TGFBR1 mRNA measured for the sequence `AGUGGUACCACGAGCAAAGTT` turned out to be 0.88

----------
Test system: TGFBR1 mRNA
assay: remaining TGFBR1 mRNA relative to control siRNA (off-target knock-down) (fraction of control); quantification method: branched DNA; higher = less knock-down
Item-by-item account of remaining TGFBR1 mRNA
// return just the number, without any unit appended

// known answers, use as guide
residue sequence	target desc	recorded metric	reported value
UUAUCCUGAUCACGUCUAGTT	TGFBR1 mRNA	remaining TGFBR1 mRNA	0.65
UUUCAUUCCAUUGGAAUUUTT	TGFBR1 mRNA	remaining TGFBR1 mRNA	1.25
AUAUUCCGUAAAACGAACATT	TGFBR1 mRNA	remaining TGFBR1 mRNA	0.77
AUGGUGUUUGCAAGCUCCUTT	TGFBR1 mRNA	remaining TGFBR1 mRNA	1
AUUGUUCCGGAAAUAGGUCTT	TGFBR1 mRNA	remaining TGFBR1 mRNA	1.15
AUCCUUGGAGAUGAGCUGGTT	TGFBR1 mRNA	remaining TGFBR1 mRNA	0.72
UGGACAUGGAGUGGCCUGATT	TGFBR1 mRNA	remaining TGFBR1 mRNA	1.09
UUAUUGGGCAAAAUCCGGGTT	TGFBR1 mRNA	remaining TGFBR1 mRNA	0.88
ACUGGAUCAGUCGCAGAAUTT	TGFBR1 mRNA	remaining TGFBR1 mRNA	1.15
UGGCCGUCAAUGUAUUUCUTT	TGFBR1 mRNA	remaining TGFBR1 mRNA	1.25

Short answer on TGFBR1 mRNA for `ACUUUGGACAUGACCGGCUTT` , remaining TGFBR1 mRNA: 1.2

Short answer on TGFBR1 mRNA for `UGGAGCUGCACAUAUUCCUTT` , remaining TGFBR1 mRNA: 1.2

Short answer on TGFBR1 mRNA for `AAAAGGCCUUCAAGCUGUUTT` , remaining TGFBR1 mRNA: 0.56

Short answer on TGFBR1 mRNA for `UGGGCUUUUCUCUUCUCUCTT` , remaining TGFBR1 mRNA: 1.47

Short answer on TGFBR1 mRNA for `UGUGCUUGGUCACGGACACTT` , remaining TGFBR1 mRNA: 1.86

Short answer on TGFBR1 mRNA for `UUGCAAGCCCAGAUCAGACTT` , remaining TGFBR1 mRNA: 0.92

Short answer on TGFBR1 mRNA for `UUCAAUAGUUGUCAGAGGCTT` , remaining TGFBR1 mRNA: 1.35

Short answer on TGFBR1 mRNA for `AUAUAUACUGCUAUGGUCATT` , remaining TGFBR1 mRNA: 0.39

Short answer on TGFBR1 mRNA for `UUGAGCGAUUCCAGCUGCATT` , remaining TGFBR1 mRNA: 1.77

Short answer on TGFBR1 mRNA for `AUAAGCAGUAAGUAGCUGGTT` , remaining TGFBR1 mRNA: 0.5

Short answer on TGFBR1 mRNA for `UUUGGAGCUCCCCAAACGCTT` , remaining TGFBR1 mRNA: 0.39
